Reference for the values: PubChem BioAssay

method summary: Restrictive medium S. cerevisiae growth inhibition, OD615, pilot screen of yeast lifespan reduction project, restrictive growth control (AID 706);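 further: modified DeaD lifespan yeast strain shifted to restrictive glucose medium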
condition context: OD615, 48 h, at 10 µM, stronger effect = higher value
assay readout: growth inhibition (%)

{"compound": "CCCOc1ccc(NC(=O)c2c(-c3ccccc3)noc2C)cc1", "experimental result": -7.54}
{"compound": "O=C(CCCCCn1c(=O)[nH]c2ccsc2c1=O)N1CCN(C2CCCCC2)CC1", "experimental result": -0.345}
{"compound": "c1ccc(Nc2nc3ccccc3n3cnnc23)cc1", "experimental result": 10.2}
{"compound": "CCN1CCN(c2cc(C)c3cc(NC(=O)Cc4ccc(OC)c(OC)c4)ccc3n2)CC1", "experimental result": -16.5}
{"compound": "Cc1ccccc1N(CC(=O)NCCSCc1ccco1)S(C)(=O)=O", "experimental result": -7.72}
{"compound": "CCCCn1c(CNC(=O)C(C)(C)C)nc2ccccc21", "experimental result": -12}
{"compound": "O=C(NCCC1=CCCCC1)C1CCN(c2nnc(-n3cccc3)s2)CC1", "experimental result": 4.32}
{"compound": "CCOC(=O)c1c(C)n(C)c2ccc(OCC(N)=O)cc12", "experimental result": -11}
{"compound": "COc1ccc(C2C3=C(CCCC3=O)Nc3nc(SCc4ccc(C(=O)O)cc4)nn32)cc1OC (centres undefined)", "experimental result": -1.59}
{"compound": "CCC(=O)N1CCc2cc(Br)cc(S(=O)(=O)NCCN3CCOCC3)c21", "experimental result": -8.08}
{"compound": "Cn1nc(-c2ccc(Cl)cc2)c2cc(C(=O)NCC3CCCO3)sc21 (centres undefined)", "experimental result": 17.7}
{"compound": "COc1ccc(N2C(=O)CC(NCc3cccc(F)c3)C2=O)cc1 (centres undefined)", "experimental result": -3.85}
{"compound": "COCC(C)N=Cc1c(O)[nH]c2ccccc12 (centres undefined)", "experimental result": 1.21}
{"compound": "Cc1ccc(S(=O)(=O)N(C)CCCC(=O)N2CCOCC2)cc1", "experimental result": -6.47}
{"compound": "COC(=O)C1=CN(CCCN2CCCC2=O)C=C(C(=O)OC)C1c1ccccc1C(F)(F)F", "experimental result": 1.3}
{"compound": "CCCOc1ccc(N2C(=O)CC(N3CCN(c4ccccc4OC)CC3)C2=O)cc1 (centres undefined)", "experimental result": -41.2}
{"compound": "CCCCCn1c(=O)[nH]c2cc(C(=O)NCCCN3CCC(C)CC3)ccc2c1=O", "experimental result": 3.06}
{"compound": "CC1Cc2nc(SCC(=O)N3CCCC3)n(C)c(=O)c2S1 (centres undefined)", "experimental result": -13.8}
{"compound": "CN(CCNC(=O)C1(O)c2ccccc2NC(=O)N1c1ccccc1)Cc1ccccc1 (centres undefined)", "experimental result": -17.7}

###

method summary: growth suppression of PTEN-deleted HCT116, pilot screen, cell-based, HCT116 clonal line, CellTiter-Glo (AID 824);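 further: 0% = 20 µM Hyamine control and 100% = vehicle cell control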
condition context: 60 h, at 10 µM, stronger effect = lower value
Inconclusive results are not listed.

{"structure smiles": "O=C(Cn1cc2c(n1)CCCCC2)N1CCCCC1", "u": "%", "viability": 92.4}
{"structure smiles": "Cc1cc(C)n(C(=O)c2ccc(NC(=O)C3CC3)cc2)n1", "u": "%", "viability": 91.3}
{"structure smiles": "O=C(NCC1(c2ccccc2)CCOCC1)c1ccc(Br)o1", "u": "%", "viability": 92.3}

###

method summary: Restrictive medium S. cerevisiae growth inhibition, OD615, pilot screen of yeast lifespan reduction project, restrictive growth control (AID 706);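 further: modified DeaD lifespan yeast strain shifted to restrictive glucose medium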
condition context: OD615, 48 h, at 10 µM, stronger effect = higher value

{"molecule": "O=C(Nc1ccc2c(c1)OCO2)C(c1ccccc1)N1CCCCC1 (stereo not given)", "growth inhibition, %": 0.37}
{"molecule": "CCN1CCN(S(=O)(=O)c2ccc3[nH]c(=O)oc3c2)CC1", "growth inhibition, %": -6.6}
{"molecule": "COc1ccc(OC)c2[nH]c(=O)c(CCNC(C)=O)cc12", "growth inhibition, %": 3.73}
{"molecule": "CCOCCn1c(SCc2cccc(C)c2)nc2c1c(=O)[nH]c(=O)n2C", "growth inhibition, %": 10}
{"molecule": "Brc1ccc(-c2nnc(-c3ccco3)o2)cc1", "growth inhibition, %": -17.3}
{"molecule": "Cc1c(Br)cc(C(=O)NCCCN2CCOCC2)c(C)c1C", "growth inhibition, %": -4.69}
{"molecule": "COc1cc2[nH]c(=O)n(CCCCCC(=O)NCCCN3CCC(C)CC3)c(=O)c2cc1OC", "growth inhibition, %": -6.3}
{"molecule": "COc1cccc(C2CC(c3cccc(OC)c3)n3nc(N)nc3N2)c1 (stereo not given)", "growth inhibition, %": 3.82}
{"molecule": "CCOC(=O)c1c(NC(=O)c2ccco2)sc2c1CCCC2", "growth inhibition, %": -15.4}
{"molecule": "Cc1ccn2cc(CCNC(=O)c3ccc(Br)o3)nc2c1", "growth inhibition, %": -12.7}
{"molecule": "O=C1C(Cl)=C(N2CCOCC2)C(=O)N1c1ccccc1Cl", "growth inhibition, %": -4.76}
{"molecule": "O=C(CN1CCOCC1)Nc1cc(Cl)ccc1Cl", "growth inhibition, %": -2.5}
{"molecule": "Cc1ccc(/C=N/c2sc3c(c2C#N)CCC3)s1", "growth inhibition, %": -5.03}
{"molecule": "CCCn1c(C(O)c2ccc(OCC)cc2)nc2ccccc21 (stereo not given)", "growth inhibition, %": -1.57}
{"molecule": "Cc1cccc(-n2c(O)c(C=Nc3ccc4c(c3)OCO4)c3ccccc3c2=O)n1", "growth inhibition, %": -8.37}

###

method summary: RAM signaling pathway blockade in yeast – S. cerevisiae, Pdr1DBD-CYC8 efflux-inhibited sensitized strain, primary screen (AID 1298);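 further: 0% = DMSO untreated cells without growth and 100% = 10 µM 1-NA-PP1 full growth; higher means more yeast growth rescued from 5-FOA killing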
condition context: S. cerevisiae cbk1-as DSE1-URA3 strain, 5-FOA growth OD615, 2 d; at 50 µM; stronger effect = higher value

{"compound": "COc1ccccc1NC(=O)C1=C(C)NC(=O)NC1c1ccc(C)cc1 (stereo not drawn)", "RAM network inhibition [%]": -1.08}
{"compound": "CCN(CC)Cc1c(O)ccc2c(-c3ccccc3)cc(=O)oc12", "RAM network inhibition [%]": 1.08}
{"compound": "CCC(=O)NCc1nc2ccccc2n1Cc1ccccc1F", "RAM network inhibition [%]": 2.45}
{"compound": "CCOC(=O)C1=C(C)N=c2s/c(=C\\C(=O)OC)c(=O)n2C1c1ccc(OC)cc1 (stereo not drawn)", "RAM network inhibition [%]": 4.95}
{"compound": "O=C(Cn1cc2c(n1)CCCC2)N1CCCC1", "RAM network inhibition [%]": 4.6}
{"compound": "C=CCn1c2ccccc2c2nnc(SCN3C(=O)c4ccccc4C3=O)nc21", "RAM network inhibition [%]": 4.65}
{"compound": "O=C(CSc1n[nH]c(-c2ccccc2)n1)c1ccccc1", "RAM network inhibition [%]": 2.45}
{"compound": "CC(=O)CSc1nc2ccc(Nc3nc(N4CCOCC4)nc(N4CCOCC4)n3)cc2s1", "RAM network inhibition [%]": 7.76}
{"compound": "CCCC(=O)NC(C)c1nc2ccccc2n1C (stereo not drawn)", "RAM network inhibition [%]": 1.79}
{"compound": "CC(=O)Nc1ccc(OC/C=C(\\C)Cl)cc1", "RAM network inhibition [%]": 2.95}
{"compound": "CSc1cccc(NC(=O)CN2C(=O)c3ccccc3S2(=O)=O)c1", "RAM network inhibition [%]": 0.05}
{"compound": "CCCC(=O)NCCc1cc2ccc(C)c(C)c2[nH]c1=O", "RAM network inhibition [%]": 4}
{"compound": "COc1ccccc1N(CC(=O)Nc1ccccc1C)S(C)(=O)=O", "RAM network inhibition [%]": 1.62}
{"compound": "COc1nc(NCCC2=CCCCC2)nc(OC)n1", "RAM network inhibition [%]": 3.01}
{"compound": "CCN(CC)S(=O)(=O)c1ccc(S(=O)(=O)N2CCN(CCC#N)CC2)cc1", "RAM network inhibition [%]": -1.32}
{"compound": "O=S(=O)(NCCN1CCCC1)c1cccc2cccnc12", "RAM network inhibition [%]": 5.38}
{"compound": "O=C(CC12CC3CC(CC(C3)C1)C2)NCO", "RAM network inhibition [%]": -1.39}
{"compound": "Cc1ccc(C(c2sc3ncnn3c2O)N2CCC(C)CC2)cc1 (stereo not drawn)", "RAM network inhibition [%]": 2.69}
{"compound": "Cc1c(C(=O)Nc2ccc(F)cc2)oc2ccc(S(=O)(=O)N3CCCC3)cc12", "RAM network inhibition [%]": 3}
{"compound": "COc1cccc(-c2nc(CS(=O)(=O)CC(=O)N3CCN(C4CCCCC4)CC3)c(C)o2)c1", "RAM network inhibition [%]": 3.35}
{"compound": "CCc1cc2c(=O)c(-c3nc4ccccc4[nH]3)coc2c(CN2CCCC(C)C2)c1O (stereo not drawn)", "RAM network inhibition [%]": 0.56}
{"compound": "CCCCCOC(=O)Cn1c(=O)oc2ccccc21", "RAM network inhibition [%]": 4.28}
{"compound": "COc1ccccc1-c1coc2cc(O)cc(O)c2c1=O", "RAM network inhibition [%]": 0.05}
